Target: T1, CD3 epsilon homodimer protein (UniProt P07766 23-126)
T1 construct: also called CD3 (CD3 epsilon)
T1 sequence (P07766 23-126): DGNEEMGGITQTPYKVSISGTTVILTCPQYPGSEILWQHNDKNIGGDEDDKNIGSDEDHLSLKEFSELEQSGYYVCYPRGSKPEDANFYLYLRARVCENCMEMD
Assay: SPR Biacore T200, CD3e homodimer on chip, vs unaltered GLS3000 antibody
Threshold 0.6. ratio of amounts bound (Z=Y/X) below it: label 1. ratio of amounts bound (Z=Y/X) at it or above: label 0.

>  <Binder>
GLS3000 S25L (antibody, name in Kabat numbering, V domains shown, one-arm IgG as m2) VH: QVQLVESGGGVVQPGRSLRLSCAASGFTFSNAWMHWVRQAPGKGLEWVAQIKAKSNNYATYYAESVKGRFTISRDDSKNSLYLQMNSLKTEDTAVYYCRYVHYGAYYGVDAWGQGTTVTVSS VL: DIVMTQSPLSLPVTPGEPASISCRLSQSLVHSNRNTYLHWYQQKPGQAPRLLIYKVSNRFSGVPDRFSGSGSGTDFTLKISRVEAEDVGVYYCGQGTQVPYTFGQGTKLEIK

>  <Cat>
label 1

$$$$
>  <Binder>
GLS3000 T92Y (antibody, name in Kabat numbering, V domains shown, one-arm IgG as m2) VH: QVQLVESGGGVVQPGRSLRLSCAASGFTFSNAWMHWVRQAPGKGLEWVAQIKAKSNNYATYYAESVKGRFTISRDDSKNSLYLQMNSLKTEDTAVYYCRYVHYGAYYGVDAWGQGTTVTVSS VL: DIVMTQSPLSLPVTPGEPASISCRSSQSLVHSNRNTYLHWYQQKPGQAPRLLIYKVSNRFSGVPDRFSGSGSGTDFTLKISRVEAEDVGVYYCGQGYQVPYTFGQGTKLEIK

>  <Cat>
label 1

$$$$
>  <Binder>
GLS3000 R29L (antibody, name in Kabat numbering, V domains shown, one-arm IgG as m2) VH: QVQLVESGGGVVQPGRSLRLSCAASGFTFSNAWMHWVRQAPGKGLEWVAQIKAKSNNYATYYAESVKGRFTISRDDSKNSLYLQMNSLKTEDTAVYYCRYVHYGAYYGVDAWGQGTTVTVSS VL: DIVMTQSPLSLPVTPGEPASISCRSSQSLVHSNLNTYLHWYQQKPGQAPRLLIYKVSNRFSGVPDRFSGSGSGTDFTLKISRVEAEDVGVYYCGQGTQVPYTFGQGTKLEIK

>  <Cat>
label 1

$$$$
>  <Binder>
GLS3000 N30R (antibody, name in Kabat numbering, V domains shown, one-arm IgG as m2) VH: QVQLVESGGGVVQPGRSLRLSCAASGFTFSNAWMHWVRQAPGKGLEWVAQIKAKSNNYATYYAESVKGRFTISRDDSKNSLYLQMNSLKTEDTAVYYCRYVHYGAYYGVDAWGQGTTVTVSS VL: DIVMTQSPLSLPVTPGEPASISCRSSQSLVHSNRRTYLHWYQQKPGQAPRLLIYKVSNRFSGVPDRFSGSGSGTDFTLKISRVEAEDVGVYYCGQGTQVPYTFGQGTKLEIK

>  <Cat>
label 0

$$$$
